Just for reference, paper PMC7003535 is where these values come from.

Target: gmAhr2a (Gadus morhua)
Sequence (A0A6H1Z3G8 1-1127): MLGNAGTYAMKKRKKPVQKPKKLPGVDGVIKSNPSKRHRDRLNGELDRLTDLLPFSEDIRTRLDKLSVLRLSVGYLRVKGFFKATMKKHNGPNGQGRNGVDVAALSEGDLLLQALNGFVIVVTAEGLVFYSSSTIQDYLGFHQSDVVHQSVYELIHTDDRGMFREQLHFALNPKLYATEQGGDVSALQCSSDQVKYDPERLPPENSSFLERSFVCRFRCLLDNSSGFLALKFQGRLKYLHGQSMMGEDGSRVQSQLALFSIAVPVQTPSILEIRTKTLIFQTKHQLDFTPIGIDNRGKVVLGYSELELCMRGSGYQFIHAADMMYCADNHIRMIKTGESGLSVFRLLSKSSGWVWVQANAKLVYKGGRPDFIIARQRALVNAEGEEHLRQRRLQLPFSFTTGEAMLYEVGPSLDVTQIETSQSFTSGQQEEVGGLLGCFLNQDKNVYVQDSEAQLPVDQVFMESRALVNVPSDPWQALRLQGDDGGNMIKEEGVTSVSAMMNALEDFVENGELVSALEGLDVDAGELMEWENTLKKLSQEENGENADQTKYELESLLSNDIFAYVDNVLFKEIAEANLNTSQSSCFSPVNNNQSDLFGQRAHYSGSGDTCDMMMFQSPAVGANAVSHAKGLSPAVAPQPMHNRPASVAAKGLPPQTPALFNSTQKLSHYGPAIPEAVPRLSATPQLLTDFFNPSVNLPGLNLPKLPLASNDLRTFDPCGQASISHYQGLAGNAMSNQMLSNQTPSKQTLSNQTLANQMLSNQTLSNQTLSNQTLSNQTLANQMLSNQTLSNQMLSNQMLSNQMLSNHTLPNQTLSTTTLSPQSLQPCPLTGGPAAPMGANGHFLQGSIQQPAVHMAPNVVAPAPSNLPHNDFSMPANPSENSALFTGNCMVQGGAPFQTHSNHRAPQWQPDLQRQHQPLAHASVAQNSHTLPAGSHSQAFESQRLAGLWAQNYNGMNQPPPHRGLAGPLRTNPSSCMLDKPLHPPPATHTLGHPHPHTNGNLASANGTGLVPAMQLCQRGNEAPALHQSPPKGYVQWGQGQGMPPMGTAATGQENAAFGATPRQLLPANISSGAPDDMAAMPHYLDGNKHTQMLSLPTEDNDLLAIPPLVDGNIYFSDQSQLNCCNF
Assay: XRE luciferase reporter gene assay in COS-7 cells, gmAhr2a with gmArnt1
Assay type: cell-based, Atlantic cod (Gadus morhua)
pEC50: −log10 of the molar value.
Measurement label: pEC50

// query Which value of pEC50 has been reported for Clc1cc2c(cc1Cl)Oc1cc(Cl)c(Cl)cc1O2 [TCDD, 2,3,7,8-Tetrachlorodibenzo-p-dioxin] in the records?
// result ~8.00

###

Target: gmAhr1a (Gadus morhua, UniProt A0A6H1Z2L5)
Sequence (A0A6H1Z2L5 1-957): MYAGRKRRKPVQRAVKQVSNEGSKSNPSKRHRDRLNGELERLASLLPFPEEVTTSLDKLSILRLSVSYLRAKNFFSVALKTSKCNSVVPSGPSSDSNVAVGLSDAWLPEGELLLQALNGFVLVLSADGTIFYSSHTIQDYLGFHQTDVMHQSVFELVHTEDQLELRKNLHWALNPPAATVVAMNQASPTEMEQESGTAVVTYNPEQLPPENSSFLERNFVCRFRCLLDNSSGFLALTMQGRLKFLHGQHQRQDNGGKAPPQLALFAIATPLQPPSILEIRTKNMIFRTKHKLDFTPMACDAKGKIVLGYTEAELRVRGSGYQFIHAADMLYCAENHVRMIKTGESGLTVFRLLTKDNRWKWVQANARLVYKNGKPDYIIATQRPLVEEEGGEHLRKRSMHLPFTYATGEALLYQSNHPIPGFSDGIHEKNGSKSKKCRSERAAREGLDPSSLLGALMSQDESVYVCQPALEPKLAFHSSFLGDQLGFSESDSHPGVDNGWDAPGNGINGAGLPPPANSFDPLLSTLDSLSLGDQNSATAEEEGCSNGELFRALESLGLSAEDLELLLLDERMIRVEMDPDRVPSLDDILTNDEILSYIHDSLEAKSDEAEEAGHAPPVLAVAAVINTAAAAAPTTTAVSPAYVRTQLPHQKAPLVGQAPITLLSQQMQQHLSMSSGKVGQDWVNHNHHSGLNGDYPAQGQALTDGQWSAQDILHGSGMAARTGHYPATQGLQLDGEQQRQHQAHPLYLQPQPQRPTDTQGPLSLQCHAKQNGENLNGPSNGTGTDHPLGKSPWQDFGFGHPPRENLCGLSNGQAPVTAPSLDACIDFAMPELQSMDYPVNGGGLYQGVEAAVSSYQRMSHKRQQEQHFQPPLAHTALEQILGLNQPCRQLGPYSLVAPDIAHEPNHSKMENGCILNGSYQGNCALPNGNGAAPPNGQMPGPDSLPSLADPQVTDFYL
Experiment: XRE luciferase reporter gene assay in COS-7 cells, gmAhr1a with gmArnt1
pEC50: −log10 of the molar value.
Measurement label: pEC50

// query Which value of pEC50 has been reported for Clc1cc2c(cc1Cl)Oc1cc(Cl)c(Cl)cc1O2 in the records?
// result ~9.00
